Entries annotated with measured normalized growth
# procedure_details: chemical genetic growth profiling, strain panel (AID 1159580);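 also: tested at 20 µM; growth read once vehicle control cultures reached saturation at 30 °C; 1 = growth at the plate median or of vehicle wells; lower values mean less growth of the strain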
# conditions: S. cerevisiae deletion strains, growth OD, locus YDR001C, strain nth1, stronger effect = lower value
The whole screen tested about 5,500 compounds, of which about 2,000 (36%) were called active. Not shown: some 18% with an inconclusive outcome. Some of the results follow.

compound	normalized growth
CC[C@@H]1OC(=O)C[C@@H](O)[C@H](C)[C@@H](O[C@@H]2O[C@H](C)[C@@H](O)[C@H](N(C)C)[C@H]2O)[C@@H](CCN2C[C@H](C)C[C@H](C)C2)C[C@@H](C)C(=O)/C=C/C(C)=C\[C@@H]1CO[C@@H]1O[C@H](C)[C@@H](O)[C@@H](OC)[C@H]1OC	1.01 (inactive)
NC(N)=NCCCCN=C(N)N	1 (inactive)
C=CCS(=O)C[C@H](N)C(=O)O (some centres not stated)	1 (inactive)
CCC(=O)OC1[C@@H]2CC3=C4CC(=O)O[C@@H](c5ccoc5)[C@]4(C)CCC3[C@@](C)(C2=O)[C@@H](CC(=O)OC)C1(C)C (some centres not stated)	0.992 (inactive)
CC(=O)Oc1c2c(c3c(c1CC=C(C)C)O[C@]14C(=C[C@@H]5CC1C(C)(C)OC4(C/C=C(\C)C(=O)O)C5=O)C3=O)OC(C)(CCC=C(C)C)C=C2 (some centres not stated)	0.985 (inactive)
C[C@@H]1CC2C3CCC4=CC(=O)C=C[C@]4(C)[C@@]3(F)[C@@H](O)C[C@]2(C)[C@@]1(O)C(=O)CO (some centres not stated)	0.966 (inactive)
NC(N)=NCCN1CCCCCCC1	1.02 (inactive)
